Molecular target: CYP2C8 (Homo sapiens)
Sequence (P10632 1-490): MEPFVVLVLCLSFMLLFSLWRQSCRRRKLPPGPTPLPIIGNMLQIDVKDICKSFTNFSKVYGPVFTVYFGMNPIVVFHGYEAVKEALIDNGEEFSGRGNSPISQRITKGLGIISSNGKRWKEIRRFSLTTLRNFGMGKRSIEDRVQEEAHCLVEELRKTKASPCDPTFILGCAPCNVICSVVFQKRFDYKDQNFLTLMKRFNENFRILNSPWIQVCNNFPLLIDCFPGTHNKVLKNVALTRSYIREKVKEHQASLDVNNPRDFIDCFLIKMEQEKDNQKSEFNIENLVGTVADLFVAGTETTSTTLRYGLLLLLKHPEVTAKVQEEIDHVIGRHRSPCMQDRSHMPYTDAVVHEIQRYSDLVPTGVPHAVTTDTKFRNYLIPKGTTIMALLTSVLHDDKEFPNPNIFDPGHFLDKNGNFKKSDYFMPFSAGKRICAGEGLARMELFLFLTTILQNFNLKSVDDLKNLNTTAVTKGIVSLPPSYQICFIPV
Assay: Reversible CYP inhibition in human liver microsomes
Conditions: human, microsomes, pH 7.4, Percent of Control Activity, CYP 2C8, 200 µM, 30-Minute Preincubation
measurement kind: activity at 200 µM (%)

molecule=COc1cccc2[nH]c(C(=O)N[C@@H](CC(C)C)C(=O)N[C@@H](C[C@@H]3CCNC3=O)C(=O)CO)cc12 numeric_result=62.8
